Target: Cytochrome P450 1A1 (Homo sapiens)
Sequence (P04798 whole entry): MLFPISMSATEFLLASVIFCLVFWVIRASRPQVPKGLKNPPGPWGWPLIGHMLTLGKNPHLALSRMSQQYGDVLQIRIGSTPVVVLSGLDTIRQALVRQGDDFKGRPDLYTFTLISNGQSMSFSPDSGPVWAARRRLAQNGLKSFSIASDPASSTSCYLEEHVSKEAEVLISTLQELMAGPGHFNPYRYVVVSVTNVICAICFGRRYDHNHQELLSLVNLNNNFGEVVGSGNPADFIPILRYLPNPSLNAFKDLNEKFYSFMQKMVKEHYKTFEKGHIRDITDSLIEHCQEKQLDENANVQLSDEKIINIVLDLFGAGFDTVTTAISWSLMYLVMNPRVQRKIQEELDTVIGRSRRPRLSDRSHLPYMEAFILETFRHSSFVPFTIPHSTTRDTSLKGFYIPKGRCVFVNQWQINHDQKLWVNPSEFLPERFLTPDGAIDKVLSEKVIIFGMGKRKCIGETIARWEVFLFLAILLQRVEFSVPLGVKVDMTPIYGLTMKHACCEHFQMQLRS
Test: Inhibition of CYP1A1 in TCDD-exposed human MCF-7 cells using ethoxyresorufin as substrate after 20 mins in presence of NADPH by spectrofluorimetric analysis
Format: ADME
quantity name: IC50 (nM)
Numbers only here, please. The scale is nM.

Data request, read-out IC50, for Br.Cc1ccc(C(=O)Cn2c3c(sc2=N)CCCC3)cc1
1500

###

Target: Cytochrome P450 1A2 (Homo sapiens, UniProt P05177)
Sequence (P05177 whole entry): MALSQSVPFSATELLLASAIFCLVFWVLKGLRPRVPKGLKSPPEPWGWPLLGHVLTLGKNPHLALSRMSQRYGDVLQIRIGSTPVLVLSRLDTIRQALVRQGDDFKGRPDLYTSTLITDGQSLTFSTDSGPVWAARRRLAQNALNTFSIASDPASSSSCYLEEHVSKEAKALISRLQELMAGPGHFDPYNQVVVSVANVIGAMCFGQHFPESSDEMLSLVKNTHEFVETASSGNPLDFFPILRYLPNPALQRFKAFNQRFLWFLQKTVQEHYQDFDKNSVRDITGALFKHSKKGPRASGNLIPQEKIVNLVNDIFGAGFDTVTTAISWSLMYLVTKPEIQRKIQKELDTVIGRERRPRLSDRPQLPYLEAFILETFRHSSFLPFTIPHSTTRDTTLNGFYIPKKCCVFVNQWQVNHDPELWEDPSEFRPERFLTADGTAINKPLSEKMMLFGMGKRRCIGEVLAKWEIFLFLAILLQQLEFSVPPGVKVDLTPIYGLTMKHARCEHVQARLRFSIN
Assay: Inhibition of […] CYP1A2 expressed in Escherichia coli DH5alpha coexpressing NADPH-P450 reductase using 7-ethoxyresorufin O-deethylation as substrate in presence of NADPH by UV absorbance analysis
Type: ADME
quantity name: pIC50
Reminder that pIC50 means the negative base-10 logarithm of the concentration expressed in mol/L.

Data request, read-out pIC50, for O=c1c2ccccc2nc2n1CCc1c-2[nH]c2ccc(O)cc12
5.59
